Molecular target: Sodium-dependent dopamine transporter (Mus musculus, UniProt Q61327)
Sequence (Q61327 whole entry): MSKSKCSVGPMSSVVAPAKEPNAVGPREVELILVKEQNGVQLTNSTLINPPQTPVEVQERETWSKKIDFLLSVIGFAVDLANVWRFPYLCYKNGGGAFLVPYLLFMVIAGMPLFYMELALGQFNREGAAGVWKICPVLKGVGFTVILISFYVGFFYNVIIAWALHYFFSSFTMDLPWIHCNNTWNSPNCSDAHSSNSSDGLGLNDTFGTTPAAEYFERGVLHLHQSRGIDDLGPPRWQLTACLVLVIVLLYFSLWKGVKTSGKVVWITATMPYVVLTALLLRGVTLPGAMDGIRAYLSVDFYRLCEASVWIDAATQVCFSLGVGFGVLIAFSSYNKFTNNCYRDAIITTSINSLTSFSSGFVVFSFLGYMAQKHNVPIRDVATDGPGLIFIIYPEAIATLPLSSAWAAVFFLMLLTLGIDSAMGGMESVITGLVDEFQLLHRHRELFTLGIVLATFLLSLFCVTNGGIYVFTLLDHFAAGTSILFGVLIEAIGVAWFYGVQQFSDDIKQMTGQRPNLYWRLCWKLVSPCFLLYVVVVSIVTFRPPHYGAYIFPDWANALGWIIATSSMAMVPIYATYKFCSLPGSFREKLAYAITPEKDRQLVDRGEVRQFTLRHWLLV

mol-smiles	Ki / nM
COc1cc(CCN2CCN(CCCc3ccccc3)CC2)ccc1OCc1ccccc1	121
c1ccc(CCCN2CCN(CCc3ccc4c(c3)OCO4)CC2)cc1	1840
C=CCOc1ccc(CCN2CCN(CCCc3ccccc3)CC2)cc1OC	2080
COc1cccc(CCN2CCN(CCCc3ccccc3)CC2)c1	1410
COc1cc(CCN2CCN(CCCc3ccccc3)CC2)ccc1OC/C=C\I	237
COc1cc(CCN2CCN(CCCc3ccccc3)CC2)ccc1OCCCc1ccccc1	87

###

Experiment: Selectivity ratio of Ki for mouse DAT to Ki for guinea pig brain sigma1 receptor

mol-smiles	Ratio Ki
c1ccc(CCCN2CCN(CCc3ccc4c(c3)OCO4)CC2)cc1	721
COc1cc(CCN2CCN(CCCc3ccccc3)CC2)ccc1OC/C=C/I	33
COc1cccc(CCN2CCN(CCCc3ccccc3)CC2)c1	1010
